Assay: in vivo
Details: Long Evans, rat, maximum tolerated dose, aortic infusion 30 min before blood-brain barrier disruption
Reported metric: MTD at 6 days
# output: numeric value plus its unit

Lab book: MTD at 6 days of CC(=O)N[C@@H](CS)C(=O)O noted as 500 mg/kg

###

Experiment: in vivo
Details: Long Evans, rat, maximum tolerated dose, aortic infusion 60 min before blood-brain barrier disruption
Reported metric: MTD at 6 days

Per the records, this compound ( CC(=O)N[C@@H](CS)C(=O)O ) has MTD at 6 days equal to 1000 mg/kg

###

Test: N-Acetylcysteine clearance from rat blood (serum concentration, colorimetric kit and HPLC)
Format: in vivo, Long Evans rats
Details: Long Evans, rat, serum, other: intravenous or aortic infusion (all groups); all groups: 140-1200 mg/kg, intravenous or aortic infusion
Protocol: N-Acetylcysteine Clearance. […] Blood samples (0.5 ml) were collected 5, 15, 30, 60, and 90 min after thiol administration, and serum was evaluated for N-acetylcysteine concentration. Serum N-acetylcysteine concentrations were measured using the Bioxytech GSH-400 colorimetric kit (Oxis Research, Portland, Oreg.). […]
Reported metric: half-life

// recorded half-life for CC(=O)N[C@@H](CS)C(=O)O : 9 to 11 min
